molecular target: UniProt P31423; assay: Positive allosteric modulation of rat mGlu4 receptor expressed in HEK cells co-expressing GIRK1/2 assessed as increase in glutamate-induced thallium flux preincubated for 140 secs followed by glutamate addition and measured after 2.5 mins by FluoZin-2-AM dye based fluorescence assay relative to control; assay type: cell-based
Sequence (P31423 whole entry): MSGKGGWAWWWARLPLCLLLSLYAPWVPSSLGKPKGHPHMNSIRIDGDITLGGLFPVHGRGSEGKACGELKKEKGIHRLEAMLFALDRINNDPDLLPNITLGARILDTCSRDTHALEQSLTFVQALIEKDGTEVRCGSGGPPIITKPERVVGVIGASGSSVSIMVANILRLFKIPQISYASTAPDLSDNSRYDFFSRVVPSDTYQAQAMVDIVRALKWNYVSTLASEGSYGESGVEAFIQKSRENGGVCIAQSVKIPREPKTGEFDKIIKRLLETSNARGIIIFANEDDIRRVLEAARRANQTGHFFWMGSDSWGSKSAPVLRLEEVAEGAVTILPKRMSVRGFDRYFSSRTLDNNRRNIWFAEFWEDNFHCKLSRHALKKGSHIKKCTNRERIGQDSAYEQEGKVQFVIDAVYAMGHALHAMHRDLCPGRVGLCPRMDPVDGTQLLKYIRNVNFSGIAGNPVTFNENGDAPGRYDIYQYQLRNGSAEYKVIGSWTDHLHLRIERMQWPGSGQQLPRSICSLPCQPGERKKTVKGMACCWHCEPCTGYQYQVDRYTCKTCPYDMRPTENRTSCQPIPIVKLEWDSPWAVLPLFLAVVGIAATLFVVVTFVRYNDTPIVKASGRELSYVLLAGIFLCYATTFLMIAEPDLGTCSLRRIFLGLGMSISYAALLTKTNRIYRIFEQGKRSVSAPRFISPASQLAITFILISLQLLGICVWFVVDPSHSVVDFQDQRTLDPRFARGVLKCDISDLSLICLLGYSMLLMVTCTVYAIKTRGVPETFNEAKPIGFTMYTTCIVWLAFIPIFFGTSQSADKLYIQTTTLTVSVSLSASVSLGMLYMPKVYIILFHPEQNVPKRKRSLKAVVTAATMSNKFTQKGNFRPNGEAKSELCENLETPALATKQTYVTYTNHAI
Measured Attribute: %max (%)

A = Cc1noc2ccc(Nc3n[nH]c4ncc(F)cc34)cc12
B = O=C(NC1CC(F)(F)C1)c1nsc2cc(Nc3n[nH]c4cccnc34)ccc12
Ask: Of A and B , whose reported %max is the larger number? To answer, give the label that identifies your chosen option.
Reply: A
(A: 121%, B: 76.8%)

* * *

assay: Fraction unbound in rat plasma after 4 hrs by equilibrium dialysis method; assay type: ADME, cell-free
Measured Attribute: fraction unbound at 4 h

Reference set (5 entries):
[[record]]
molecule = "O=C(c1nsc2cc(Nc3n[nH]c4cccnc34)ccc12)N1CCC(F)(F)CC1"
result_value = 0.029

[[record]]
molecule = "Cc1noc2ccc(Nc3n[nH]c4ncc(F)cc34)cc12"
result_value = 0.044

[[record]]
molecule = "CC(C)(C)Cc1nsc2cc(Nc3n[nH]c4nccnc34)cnc12"
result_value = 0.011

[[record]]
molecule = "O=C(NC1CC(F)(F)C1)c1nsc2cc(Nc3n[nH]c4cccnc34)ccc12"
result_value = 0.005

[[record]]
molecule = "CC(C)(C)Cc1noc2cc(Nc3n[nH]c4nccnc34)ccc12"
result_value = 0.023


P = Cc1noc2ccc(Nc3n[nH]c4nccnc34)cc12
Q = CCc1noc2cc(Nc3n[nH]c4cccnc34)ccc12
R = CC(F)(F)c1noc2cc(Nc3n[nH]c4cccnc34)ccc12
Ask: Thanks in advance: please rank these 3 entries by fraction unbound at 4 h, highest to lowest. # list labels per requested ordering
Reply: P, Q, R

a = Cc1noc2ccc(Nc3n[nH]c4ncccc34)cc12
b = CC(=O)N1CCC(c2nsc3cc(Nc4n[nH]c5cccnc45)ccc23)CC1
c = CC(C)(C)Cc1noc2cc(Nc3n[nH]c4cccnc34)ccc12
Ask: Order the records so the highest fraction unbound at 4 h appears first and the lowest last. Give your ranking as a list of the labels in the requested order.
Reply: a, b, c

A = c1cnc2c(Nc3ccc4c(C5CC5)nsc4c3)n[nH]c2c1
B = Cc1noc2c(F)cc(Nc3n[nH]c4cccnc34)cc12
C = Cc1noc2c(F)cc(Nc3n[nH]c4ncccc34)cc12
D = O=C(NC1CC(F)(F)C1)c1nsc2cc(Nc3n[nH]c4nccnc34)ccc12
E = Cc1noc2ccc(Nc3n[nH]c4cc(F)cnc34)cc12
Ask: Please order the records by their reported fraction unbound at 4 h, lowest number first. Give your ranking as a list of the labels in the requested order.
Reply: D, A, C, B, E

P = c1cnc2c(Nc3ccc4c(C5CCC5)noc4c3)n[nH]c2c1
Q = CCc1nsc2cc(Nc3n[nH]c4cccnc34)ccc12
R = O=C(c1nsc2cc(Nc3n[nH]c4cccnc34)ccc12)N1CCOCC1
S = c1cnc2c(Nc3ccc4c(C5CC5)nsc4c3)n[nH]c2n1
Ask: rank_up(items): orders items by reported fraction unbound at 4 h in ascending numerical order. Note for the reader: the ranking is given by listing the labels in the order requested.
Reply: S, P, Q, R
(S: 0.008, P: 0.016, Q: 0.03, R: 0.059)

a = CC1CN(C(=O)c2nsc3cc(Nc4n[nH]c5cccnc45)ccc23)CC(C)O1 (stereo not drawn)
b = c1cnc2c(Nc3ccc4c(C5CCCC5)noc4c3)n[nH]c2c1
Ask: Sorting ascending by fraction unbound at 4 h, which comes first: a or b ? // respond with label for picked entry
Reply: b
(b: 0.007, a: 0.034)
